- Test system: reserpine-induced hypothermia in the mouse
- Assay Comment: Reversal of reserpine-induced hypothermia in the mouse
- Type: in vivo
- Experimental Parameters: 32 mg./kg. i.p., 2 hours after dosing; reserpine 2 mg./kg. s.c. 18 hours before; saline control 25.1° ± 3.2° C.
Structures can show the parent of a compound that is named as a salt.
Classification field: enter fulfilled for Mean Rectal Temperature, Temp. (° C.) ±S.D. values not below 30 °C, not fulfilled for values below it.

Ask: In plain terms: is recorded Mean Rectal Temperature, Temp. (° C.) ±S.D. at least 30 °C for CN(C)[C@H]1CC[C@@H](c2ccccc2)c2ccccc21 (relative stereo) [Cis-isomer of Example VIII, hydrochloride] ?
Reply: fulfilled

Ask: In plain terms: is recorded Mean Rectal Temperature, Temp. (° C.) ±S.D. at least 30 °C for Cl.N[C@@H]1CC[C@@H](c2ccccc2)c2ccccc21 (relative stereo) [Trans-isomer of Example IX] ?
Reply: fulfilled

Ask: In plain terms: is recorded Mean Rectal Temperature, Temp. (° C.) ±S.D. at least 30 °C for CC(C)N[C@@H]1CC[C@@H](c2ccccc2)c2ccccc21 (relative stereo) [Trans-isomer of Example VI, hydrochloride] ?
Reply: fulfilled

Ask: In plain terms: is recorded Mean Rectal Temperature, Temp. (° C.) ±S.D. at least 30 °C for CC(C)N[C@H]1CC[C@@H](c2ccccc2)c2ccccc21 (relative stereo) [Cis-isomer of Example VI, hydrochloride] ?
Reply: not fulfilled

Ask: In plain terms: is recorded Mean Rectal Temperature, Temp. (° C.) ±S.D. at least 30 °C for CN[C@H]1CC[C@H](c2ccccc2)c2ccccc21 [Trans-l-isomer of Example III, hydrochloride] ?
Reply: not fulfilled

Ask: In plain terms: is recorded Mean Rectal Temperature, Temp. (° C.) ±S.D. at least 30 °C for CN(C)[C@@H]1CC[C@@H](c2ccccc2)c2ccccc21 (relative stereo) [Trans-isomer of Example VIII, hydrochloride] ?
Reply: fulfilled

Ask: In plain terms: is recorded Mean Rectal Temperature, Temp. (° C.) ±S.D. at least 30 °C for CCN[C@H]1CC[C@@H](c2ccccc2)c2ccccc21 (relative stereo) [Cis-isomer of Example V, hydrochloride] ?
Reply: not fulfilled

Ask: In plain terms: is recorded Mean Rectal Temperature, Temp. (° C.) ±S.D. at least 30 °C for c1ccc([C@@H]2CC[C@@H](NC3CC3)c3ccccc32)cc1 (relative stereo) [Trans-isomer of Example VII, hydrochloride] ?
Reply: fulfilled

Ask: In plain terms: is recorded Mean Rectal Temperature, Temp. (° C.) ±S.D. at least 30 °C for c1ccc([C@@H]2CC[C@H](NC3CC3)c3ccccc32)cc1 (relative stereo) [Cis-isomer of Example VII, hydrochloride] ?
Reply: not fulfilled

Ask: In plain terms: is recorded Mean Rectal Temperature, Temp. (° C.) ±S.D. at least 30 °C for CN[C@H]1CC[C@@H](c2ccccc2)c2ccccc21 (relative stereo) [Cis-isomer of Example IV, hydrochloride] ?
Reply: not fulfilled

Ask: In plain terms: is recorded Mean Rectal Temperature, Temp. (° C.) ±S.D. at least 30 °C for CN[C@@H]1CC[C@@H](c2ccccc2)c2ccccc21 [Trans-d-isomer of Example III, hydrochloride] ?
Reply: fulfilled

Ask: In plain terms: is recorded Mean Rectal Temperature, Temp. (° C.) ±S.D. at least 30 °C for CCN[C@@H]1CC[C@@H](c2ccccc2)c2ccccc21 (relative stereo) [Trans-isomer of Example V, hydrochloride] ?
Reply: fulfilled

Ask: In plain terms: is recorded Mean Rectal Temperature, Temp. (° C.) ±S.D. at least 30 °C for CN[C@@H]1CC[C@@H](c2ccccc2)c2ccccc21 (relative stereo) [Trans-isomer of Example IV, hydrochloride] ?
Reply: fulfilled
